Entries and their IC50 at 24 h values follow.
assay: in vitro; format: cell-based, human; details: human

MOLECULE | IC50 at 24 h
C=C(C)CCC[C@]1(C)OC(=O)[C@]23CC=C4[C@@H](CC[C@H]5C(C)(C)[C@@H](O[C@@H]6OC[C@@H](O)[C@H](O)[C@H]6O[C@@H]6O[C@H](CO)[C@@H](O[C@@H]7O[C@H](COS(=O)(=O)O)[C@@H](O)[C@H](O[C@@H]8O[C@H](COS(=O)(=O)O)[C@@H](O)[C@H](OC)[C@H]8O)[C@H]7O)[C@H](O)[C@H]6O)CC[C@]45C)[C@]2(C)CC(=O)[C@@H]31 [psolusoside G (4), psolusoside G] | > 50 µM
C=C(C)CCC[C@](C)(OC(C)=O)[C@H]1[C@@H]2C[C@@]3(C)C4=CC[C@H]5C(C)(C)[C@@H](O[C@@H]6OC[C@@H](O[C@@H]7O[C@H](CO)[C@@H](O)[C@H](O)[C@H]7OS(=O)(=O)[O-])[C@H](O)[C@H]6O[C@@H]6O[C@H](CO)[C@@H](O[C@@H]7O[C@H](COS(=O)(=O)[O-])[C@@H](O)[C@H](O)[C@H]7O)[C@H](O)[C@H]6O)CC[C@]5(C)C4CC[C@]13C(=O)O2.[Na+].[Na+] (stereo partly drawn) [psolusoside B (3), psolusoside B] | > 50 µM
C=C(C)CCC[C@]1(C)OC(=O)[C@]23CC[C@@H]4C(=CC[C@H]5C(C)(C)[C@@H](O[C@@H]6OC[C@@H](O[C@@H]7O[C@H](CO)[C@@H](O)[C@H](O)[C@H]7OS(=O)(=O)[O-])[C@H](O)[C@H]6O[C@@H]6O[C@H](CO)[C@@H](O[C@@H]7O[C@H](COS(=O)(=O)[O-])[C@@H](O)[C@H](O)[C@H]7O)[C@H](O)[C@H]6O)CC[C@]45C)[C@]2(C)CC(=O)[C@@H]31.[Na+].[Na+] [peronioside A (1)] | > 50 µM

###

assay: in vitro; type: cell-based, human; conditions: human
Entries and their IC50 at 24 h values follow.

COMPOUND | IC50 at 24 h
C=C(C)CCC[C@]1(C)OC(=O)[C@]23CCC4C(=CC[C@H]5C(C)(C)[C@@H](O[C@@H]6OC[C@@H](O[C@@H]7O[C@H](COS(=O)(=O)O)[C@@H](O)[C@H](O)[C@H]7O)[C@H](O)[C@H]6O[C@@H]6OC[C@@H](O[C@@H]7O[C@H](COS(=O)(=O)O)[C@@H](O)[C@H](O)[C@H]7O)[C@H](O)[C@H]6O)CC[C@]45C)[C@]2(C)C[C@H](OC(C)=O)[C@@H]31 (stereo partly drawn) [psolusoside I (5), psolusoside I] | > 50 µM
C=C(C)CCC[C@]1(C)OC(=O)[C@]23CC=C4[C@@H](CC[C@H]5C(C)(C)[C@@H](O[C@@H]6OC[C@@H](O)[C@H](O)[C@H]6O[C@@H]6O[C@H](C)[C@@H](O[C@@H]7O[C@H](COS(=O)(=O)[O-])[C@@H](O)[C@H](O[C@@H]8O[C@H](COS(=O)(=O)[O-])[C@@H](O)[C@H](OC)[C@H]8O)[C@H]7O)[C@H](O)[C@H]6O)CC[C@]45C)[C@]2(C)CC(=O)[C@@H]31.[Na+].[Na+] [psolusoside A (2), psolusoside A] | > 50 µM
C=C(C)CCC[C@]1(C)OC(=O)[C@]23CC=C4[C@@H](CC[C@H]5C(C)(C)[C@@H](O[C@@H]6OC[C@@H](O[C@@H]7O[C@H](COS(=O)(=O)[O-])[C@@H](O)[C@H](O)[C@H]7O)[C@H](O)[C@H]6O[C@@H]6O[C@H](C)[C@@H](O[C@@H]7O[C@H](COS(=O)(=O)[O-])[C@@H](O)[C@H](O[C@@H]8O[C@H](COS(=O)(=O)[O-])[C@@H](O)[C@H](OC)[C@H]8O)[C@H]7O)[C@H](O)[C@H]6O)CC[C@]45C)[C@]2(C)CC(=O)[C@@H]31.[Na+].[Na+].[Na+] [psolusoside L (6), psolusoside L] | 33.1 µM

// provenance: paper PMC11278233
